Assign activity at 5000 µM to each entry below.
Biological target: PfCRT^Ecu1110 (Plasmodium falciparum, UniProt Q9N623, A220S/I356L/K76T/N326D)
Assay: cell-based
Format: cell-based
Settings: […], pH 5.5, read-out: Uptake of [3H]CQ (% PfCRTEcu1110 control), trans-stimulation, PfCRTEcu1110 oocytes; [test solute]i = 5 mM; total [3H]CQ transport, normalised to the oocyte type control
Experimental: Unless specified otherwise, the transport assays were conducted over 1.5 h at 27.5 °C and the reaction buffer was ND96 (96 mM NaCl, 2 mM KCl, 1 mM MgCl2, 1.8 mM CaCl2, 10 mM MES and 10 mM Tris-base) at pH 5.5. The intracellular concentrations were calculated using previous estimates of the volume of stage V–VI oocytes (~400 nL[60]). […] The oocytes were injected with VF-6 suspended in 25 nL ND96 buffer adjusted to pH 5.0, 5.5, 6.0 or 7.0, which corresponded to the injection of 2.5–250 fmol of H^+. […]
Numbers only, in %.

Completed entries (count: 5):
structure.string: N[C@@H](Cc1ccccc1)C(=O)O
measured.target: PfCRT^Ecu1110 (Plasmodium falciparum, UniProt Q9N623, A220S/I356L/K76T/N326D)
measurement.kind: activity at 5000 µM
reported.value: 98
--
structure.string: N[C@@H](Cc1ccc(O)cc1)C(=O)O
measured.target: PfCRT^Ecu1110 (Plasmodium falciparum, UniProt Q9N623, A220S/I356L/K76T/N326D)
measurement.kind: activity at 5000 µM
reported.value: 99
--
structure.string: N[C@@H](Cc1c[nH]c2ccccc12)C(=O)O
measured.target: PfCRT^Ecu1110 (Plasmodium falciparum, UniProt Q9N623, A220S/I356L/K76T/N326D)
measurement.kind: activity at 5000 µM
reported.value: 99
--
structure.string: CC[C@H](C)[C@H](N)C(=O)O
measured.target: PfCRT^Ecu1110 (Plasmodium falciparum, UniProt Q9N623, A220S/I356L/K76T/N326D)
measurement.kind: activity at 5000 µM
reported.value: 99
--
structure.string: C[C@H](N)C(=O)O
measured.target: PfCRT^Ecu1110 (Plasmodium falciparum, UniProt Q9N623, A220S/I356L/K76T/N326D)
measurement.kind: activity at 5000 µM
reported.value: 99

Respectfully, I request activity at 5000 µM for each entry included below.
1. CC(C)[C@H](N)C(=O)O
2. N=C(N)NCCC[C@H](N)C(=O)O
3. C[C@@H](O)[C@H](N)C(=O)O
4. NCCCC[C@H](N)C(=O)O
5. N[C@@H](CO)C(=O)O
6. N[C@@H](CS)C(=O)O
7. CC(C)C[C@H](N)C(=O)O

Completion:
98
100
101
97
100
97
98

Record activity at 5000 µM per entry; entries follow.
1. N[C@@H](CCC(=O)O)C(=O)O
2. CSCC[C@H](N)C(=O)O

Completion:
1: 99; 2: 98

----------
Please respond with reported Trans-stimulation: total [3H]CQ transport, PfCRTDd2 oocytes for every item in the list.
Target: PfCRT^Dd2 (Plasmodium falciparum, UniProt Q9N623, A220S/I356T/K76T/M74I/N326S/N75E/Q271E/R371I)
Sequence (Q9N623 whole entry A220S/I356T/K76T/M74I/N326S/N75E/Q271E/R371I): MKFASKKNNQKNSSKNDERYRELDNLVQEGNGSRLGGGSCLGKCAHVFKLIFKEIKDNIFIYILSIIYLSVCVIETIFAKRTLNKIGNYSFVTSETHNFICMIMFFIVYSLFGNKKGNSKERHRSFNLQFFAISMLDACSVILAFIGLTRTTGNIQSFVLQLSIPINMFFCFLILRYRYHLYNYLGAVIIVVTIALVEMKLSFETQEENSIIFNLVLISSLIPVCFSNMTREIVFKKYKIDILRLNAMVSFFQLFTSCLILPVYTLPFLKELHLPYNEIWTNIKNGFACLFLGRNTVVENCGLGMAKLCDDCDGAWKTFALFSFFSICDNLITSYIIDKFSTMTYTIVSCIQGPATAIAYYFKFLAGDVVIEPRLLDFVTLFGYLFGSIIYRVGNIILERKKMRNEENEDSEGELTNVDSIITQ
Assay: cell-based
Assay type: cell-based
Details: footnote b: highest intracellular concentration tested was 30 mM (solubility); mean ± SEM; SEM

Example results:
entry.sequence: LTPEEKSAVTAL [LL-12]
reported.value: 100 ± 2.8b % of PfCRTDd2 control
//
entry.sequence: YFPHFDLS [YS-8]
reported.value: 99 ± 2.8b % of PfCRTDd2 control

Next item in the queue.
Prompt: Returns the measured Trans-stimulation: total [3H]CQ transport, PfCRTDd2 oocytes for the input sequence. Input: GTFATLSELHCDK [GK-13]
Completion: 97 ± 2.7b % of PfCRTDd2 control

----------
Target: PfCRT^Dd2 (Plasmodium falciparum, UniProt Q9N623, A220S/I356T/K76T/M74I/N326S/N75E/Q271E/R371I)
Test: [3H]CQ uptake into Xenopus oocytes, cis-inhibition by unlabelled solute
Type: cell-based
Conditions: [test solute] = 2 mM; PfCRTDd2 oocytes; background [3H]CQ accumulation subtracted; normalised to oocyte type control
measurement.kind: PfCRT-mediated [3H]CQ transport, cis-inhibition (% PfCRTDd2 control)
One number for each entry, in % PfCRTDd2 control.

Worked set:
substance: LHVDPENF [LF-8]
reported.value: 11
--
substance: PHFDLS [PS-6]
reported.value: 17
--
substance: VDPVNFK [VK-7]
reported.value: 3.2
--
substance: DTSLKPIS [DS-8]
reported.value: 19
--
substance: DLDDALDK [DK-8]
reported.value: 24
--
substance: LSFPTTK [LK-7]
reported.value: 18

Record PfCRT-mediated [3H]CQ transport, cis-inhibition (% PfCRTDd2 control) for all entries; do not skip any.
1. HVDDMPN [HN-7]
2. DPENFR [DR-6]
3. HVDPENF [HF-7]
4. EFTPPVQA [EA-8]
5. FSDGLA [FA-6]
6. VLSPAD [VD-6]
7. EFTPPVQ [EQ-7]
8. HVDPENFRL [HL-9]

Completion:
9.2
17
18
18
10
29
17
9

# batch: return PfCRT-mediated [3H]CQ transport, cis-inhibition (% PfCRTDd2 control) for each of the 2 substances below
1. HVDDMPNA [HA-8]
2. FPHFDLS [FS-7]

Completion:
20
11

Prompt: Dear colleague, I am looking for the recorded PfCRT-mediated [3H]CQ transport, cis-inhibition (% PfCRTDd2 control) of the following substance: DLHAHKLR [DR-8]
Completion: 12

----------
Molecular target: PfCRT^3D7 (Plasmodium falciparum)
Assay: cell-based
Format: cell-based
Conditions: […]; read-out: PfCRT-mediated [3H]CQ transport, trans-stimulation (% PfCRT3D7 control)
Description: Unless specified otherwise, the transport assays were conducted over 1.5 h at 27.5 °C and the reaction buffer was ND96 (96 mM NaCl, 2 mM KCl, 1 mM MgCl2, 1.8 mM CaCl2, 10 mM MES and 10 mM Tris-base) at pH 5.5. The intracellular concentrations were calculated using previous estimates of the volume of stage V–VI oocytes (~400 nL[60]). […] The oocytes were injected with VF-6 suspended in 25 nL ND96 buffer adjusted to pH 5.0, 5.5, 6.0 or 7.0, which corresponded to the injection of 2.5–250 fmol of H^+. […]
measurement.kind: activity at 45000 µM (%)
Answers are plain numbers, in %.

// solved cases for activity at 45000 µM follow
molecule: N[C@@H](Cc1c[nH]cn1)C(=O)O [L-histidine]
reported.value: 97

molecule: CC[C@H](C)[C@H](N)C(=O)O [L-isoleucine]
reported.value: 96

molecule: C[C@H](N)C(=O)O [L-alanine]
reported.value: 97

molecule: NC(=O)CC[C@H](N)C(=O)O [L-glutamine]
reported.value: 98

molecule: N[C@@H](CS)C(=O)O [L-cysteine]
reported.value: 94

molecule: N=C(N)NCCC[C@H](N)C(=O)O [L-arginine]
reported.value: 96

molecule: CC(C)C[C@H](N)C(=O)O [L-leucine]
reported.value: 95

Prompt: Notebook entry, PfCRT^3D7 (Plasmodium falciparum) assay: activity at 45000 µM of N[C@@H](Cc1ccccc1)C(=O)O [L-phenylalanine] = ?
Completion: 96

----------
Biological target: PfCRT^3D7 (Plasmodium falciparum, UniProt Q8IBZ9)
Sequence (Q8IBZ9 59-398): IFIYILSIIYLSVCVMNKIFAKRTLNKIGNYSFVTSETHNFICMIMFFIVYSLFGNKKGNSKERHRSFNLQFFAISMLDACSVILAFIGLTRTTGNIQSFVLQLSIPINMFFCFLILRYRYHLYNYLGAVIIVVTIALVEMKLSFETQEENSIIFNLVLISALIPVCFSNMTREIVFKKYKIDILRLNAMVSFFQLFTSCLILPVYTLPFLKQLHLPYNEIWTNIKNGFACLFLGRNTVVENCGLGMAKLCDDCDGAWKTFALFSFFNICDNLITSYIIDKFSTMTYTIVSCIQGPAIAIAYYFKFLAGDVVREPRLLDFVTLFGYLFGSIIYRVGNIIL
Assay: cell-based
Type: cell-based
Details: SEM
Exercise: for every item that follows, state its recorded [3H]CQ transport (% PfCRT3D7 control), trans-stimulation, PfCRT3D7.
One number for each entry, in % PfCRT3D7 control.

Previously resolved entries follow.
structure.string: CC[C@H](C)[C@H](N)C(=O)O
measured.target: PfCRT^3D7 (Plasmodium falciparum, UniProt Q8IBZ9)
reported.value: 0.3
--
structure.string: CSCC[C@H](N)C(=O)O
measured.target: PfCRT^3D7 (Plasmodium falciparum, UniProt Q8IBZ9)
reported.value: 0.3
--
structure.string: N[C@@H](Cc1ccc(O)cc1)C(=O)O
measured.target: PfCRT^3D7 (Plasmodium falciparum, UniProt Q8IBZ9)
reported.value: 0.3
--
structure.string: N[C@@H](Cc1c[nH]c2ccccc12)C(=O)O
measured.target: PfCRT^3D7 (Plasmodium falciparum, UniProt Q8IBZ9)
reported.value: 0.3
--
structure.string: NC(=O)CC[C@H](N)C(=O)O
measured.target: PfCRT^3D7 (Plasmodium falciparum, UniProt Q8IBZ9)
reported.value: 0.3

Parameter requested: [3H]CQ transport (% PfCRT3D7 control), trans-stimulation, PfCRT3D7. Apply to each item below.
1. N[C@@H](Cc1c[nH]cn1)C(=O)O
2. NCCCC[C@H](N)C(=O)O
3. O=C(O)[C@@H]1CCCN1
4. N[C@@H](CCC(=O)O)C(=O)O
5. N=C(N)NCCC[C@H](N)C(=O)O

Completion:
1. 0.2
2. 0.3
3. 0.2
4. 0.4
5. 0.3

# batch size: 5; output [3H]CQ transport (% PfCRT3D7 control), trans-stimulation, PfCRT3D7 per entry
1. N[C@@H](CO)C(=O)O
2. CC(C)[C@H](N)C(=O)O
3. N[C@@H](Cc1ccccc1)C(=O)O
4. N[C@@H](CS)C(=O)O
5. C[C@@H](O)[C@H](N)C(=O)O

Completion:
1. 0.3
2. 0.3
3. 0.3
4. 0.3
5. 0.3
